# Target or system: COX-2 (Mus musculus)
# Construct: host or cells: RAW 264.7 cells, aspirin-pretreated, then induced with interferon gamma and LPS
# Sequence (Q05769 18-604): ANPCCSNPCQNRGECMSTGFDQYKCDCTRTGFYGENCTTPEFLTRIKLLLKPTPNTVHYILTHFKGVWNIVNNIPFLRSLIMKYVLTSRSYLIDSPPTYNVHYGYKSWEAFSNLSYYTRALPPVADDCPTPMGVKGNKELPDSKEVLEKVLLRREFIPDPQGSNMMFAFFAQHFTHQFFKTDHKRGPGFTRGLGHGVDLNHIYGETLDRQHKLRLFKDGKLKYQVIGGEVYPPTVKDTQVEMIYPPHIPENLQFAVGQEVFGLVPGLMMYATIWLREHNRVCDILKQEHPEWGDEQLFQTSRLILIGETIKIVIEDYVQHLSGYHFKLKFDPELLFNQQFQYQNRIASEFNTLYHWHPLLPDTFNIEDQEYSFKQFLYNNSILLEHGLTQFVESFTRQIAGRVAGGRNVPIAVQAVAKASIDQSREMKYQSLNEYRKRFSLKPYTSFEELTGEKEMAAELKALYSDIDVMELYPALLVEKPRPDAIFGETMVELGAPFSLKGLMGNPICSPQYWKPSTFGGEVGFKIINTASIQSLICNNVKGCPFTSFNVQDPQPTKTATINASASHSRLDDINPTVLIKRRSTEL
# Protocol summary: Assay for the COX-2 inhibitory activity using RAW 264.7 cell line (PGE2, interferon γ/LPS induced)
# Format: cell-based
# Condition notes: RAW264.7; 10 nM test compound; RAW 264.7 cells; interferon γ + LPS, 18 hours; PGE2; read-out: Cyclooxygenase (COX) Inhibition (%) COX-2 (10 nM)
Measurement label: inhibition at 0.01 µM (%)

>  <Molecule>
CS(=O)(=O)c1ccc(-n2nc(C(F)(F)F)nc2-c2ccc(Br)cc2)cn1 [Example 47]

>  <Target or system>
COX-2 (Mus musculus)

>  <inhibition at 0.01 µM / %>
4.26

$$$$

P: COc1ccc(-c2nc(C(F)(F)F)nn2-c2ccc(S(C)(=O)=O)nc2)cc1 [Example 48]
Q: CCOc1ccc(-c2nc(C(F)(F)F)nn2-c2ccc(S(C)(=O)=O)cc2)cc1 [Example 35]
Input line: # compare inhibition at 0.01 µM for P vs Q ; return the one with the smaller value Please reply using the label of the selected record.
Output line: P
